TARGET DESC: Cad1 (UniProt P24813)
Sequence: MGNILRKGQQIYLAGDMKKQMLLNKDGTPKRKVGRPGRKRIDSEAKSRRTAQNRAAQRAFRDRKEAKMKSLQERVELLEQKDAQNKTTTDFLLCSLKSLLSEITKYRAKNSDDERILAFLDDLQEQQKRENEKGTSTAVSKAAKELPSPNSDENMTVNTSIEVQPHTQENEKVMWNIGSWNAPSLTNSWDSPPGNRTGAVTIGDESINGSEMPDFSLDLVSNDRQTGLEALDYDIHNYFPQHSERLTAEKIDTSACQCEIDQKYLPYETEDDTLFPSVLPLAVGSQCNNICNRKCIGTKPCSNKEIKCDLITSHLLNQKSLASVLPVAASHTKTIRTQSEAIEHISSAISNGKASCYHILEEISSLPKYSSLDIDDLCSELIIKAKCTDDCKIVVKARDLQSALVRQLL
PROTOCOL DETAILS: PBM E-score (8-mer binding enrichment) (E-score (-0.5 to 0.5)); higher = stronger / more preferred TF binding
RUN CONDITIONS: protein concentration: 100 nM; construct: GST-full length
Over roughly 33,000 sequences, “E-score (-0.5 to 0.5)” has its median near -0.0014; the highest 2% begin near 0.25. This excerpt belongs to a sample that is enriched for the highest values.
Please use T whenever PBM E-score is not below 0.1, and F whenever it is.

sequence_data=ATTAGTTG group_label=T
sequence_data=CGTCAAGC group_label=F
sequence_data=CTTCACGC group_label=T
sequence_data=TGTTATAA group_label=T
sequence_data=CGCGCTTC group_label=F
sequence_data=AGTAATCA group_label=T
sequence_data=GCTTACTA group_label=T
sequence_data=ACTTACTA group_label=T
sequence_data=AGTAAGCC group_label=T
sequence_data=CTTAGTCA group_label=T
sequence_data=CCTATTAC group_label=F
sequence_data=ATTAGTGG group_label=T
sequence_data=AATTACTC group_label=T
sequence_data=CTATATAA group_label=F
sequence_data=ACACAGCC group_label=F
sequence_data=ACATATAC group_label=F
sequence_data=AATTACTG group_label=T
sequence_data=TACATTAA group_label=T
sequence_data=CCAGCCCG group_label=F
sequence_data=GGCCTTAC group_label=F
sequence_data=AGTAAGCG group_label=T
sequence_data=AAATATAC group_label=F
sequence_data=ATAAGCGA group_label=T
sequence_data=AGCTCCAC group_label=F
sequence_data=AGTAAACA group_label=T
sequence_data=ACACGCGA group_label=T
sequence_data=GGCCTCAC group_label=F
sequence_data=CATTACTC group_label=F
sequence_data=GACGGAGA group_label=F
sequence_data=ACTAAGCG group_label=T
sequence_data=GAATCCAA group_label=F
sequence_data=GTATATAC group_label=F
sequence_data=GGTAATCA group_label=T
sequence_data=CCGAAGCG group_label=F
sequence_data=GGCGCTGA group_label=F
sequence_data=CGGGTGAC group_label=F
sequence_data=TAATCGAA group_label=T
sequence_data=AGCGCTGG group_label=T
sequence_data=GGTAGTAC group_label=F
sequence_data=AAGCGACT group_label=F
sequence_data=GTTTACTA group_label=T
sequence_data=TGATATAA group_label=F
sequence_data=GGGAAGAC group_label=F
sequence_data=GACAAGCA group_label=F
sequence_data=AAATCGAA group_label=F
sequence_data=CGCGCTGA group_label=T
sequence_data=AATTACAG group_label=T
sequence_data=CCTTACTA group_label=T
sequence_data=AGGTCCGG group_label=F
sequence_data=GACGTATC group_label=F
sequence_data=GGTAGCCA group_label=F
sequence_data=TATATTAA group_label=T
sequence_data=TACTTGAA group_label=F
sequence_data=GGTAAACA group_label=T
sequence_data=GATTACTA group_label=T
sequence_data=AGAATGAT group_label=F
sequence_data=AGCGCTTA group_label=T
sequence_data=ATTAGTTA group_label=T
sequence_data=ACGAGACC group_label=F
sequence_data=ACTCCCGA group_label=F
sequence_data=CATAATCA group_label=T
sequence_data=GATATTAC group_label=T
sequence_data=ATAAGCGC group_label=T
sequence_data=ACCCTAAG group_label=F
sequence_data=GTTAGTTA group_label=T
sequence_data=AGCGTACG group_label=F
sequence_data=CAGTTGGG group_label=F
sequence_data=GTATATAA group_label=T
sequence_data=AACTCCGT group_label=F
sequence_data=GAAATCGA group_label=F
sequence_data=CTTTACTA group_label=T
sequence_data=GGCAACCC group_label=F
sequence_data=AATATTAC group_label=T
sequence_data=CGTAATCC group_label=T
sequence_data=AAATCCAA group_label=T
sequence_data=ATTCCCTG group_label=T
sequence_data=CGTTATAA group_label=T
sequence_data=CTAAGCGA group_label=F
sequence_data=ACGGTGAC group_label=F
sequence_data=ATCTGGTG group_label=F
sequence_data=ACACGCGG group_label=F

Values from the supplement of paper PMC3334620
